Numbers sourced from ChEMBL document CHEMBL3352772.

Here the recorded pIC50 is given for each entry.
# Tested on: HepG2
# measurement_description: Cytotoxicity against human HepG2 cells after 48 hrs by
# Type: cell-based
# condition_info: HepG2, 48 h
pIC50: −log10 of the molar value.
parameter: pIC50

INSERT INTO assay_data (chemical_string, assay_result) VALUES
  ('C(=N\Nc1nc(-c2ccccc2)cs1)/c1ccccn1', 4.00),
  ('Clc1ccc(-c2csc(N/N=C/c3ccccn3)n2)c(Cl)c1', 4.00),
  ('Cc1ccc(-c2csc(N/N=C/c3ccccn3)n2)cc1', 4.00),
  ('C/C(=N\Nc1nc(-c2ccc(F)cc2)cs1)c1ccccn1', 4.04),
  ('Clc1ccc(-c2csc(N/N=C/c3ccccn3)n2)cc1', 4.00),
  ('C/C(=N\Nc1nc(-c2ccc(Br)cc2)cs1)c1ccccn1', 4.00);

---

# target_or_test_system: Cruzipain (Trypanosoma cruzi)
# measurement_description: Inhibition of recombinant Trypanosoma cruzi cruzain using Z-Phe-Argaminomethylcoumarin as fluorogenic substrate preincubated at 100 uM for 10 mins before substrate addition by fluorimetry
// reported inhibition for each item listed
parameter: inhibition (%)

INSERT INTO assay_data (chemical_string, target_or_test_system, parameter, readout_unit, assay_result) VALUES
  ('C/C(=N\Nc1nc(-c2ccc(F)cc2)cs1)c1ccccn1', 'Cruzipain (Trypanosoma cruzi)', 'inhibition', '%', 89),
  ('O=[N+]([O-])c1cccc(-c2csc(N/N=C/c3ccccn3)n2)c1', 'Cruzipain (Trypanosoma cruzi)', 'inhibition', '%', 85),
  ('C/C(=N\Nc1nc(-c2ccc(Cl)c(Cl)c2)cs1)c1ccccn1', 'Cruzipain (Trypanosoma cruzi)', 'inhibition', '%', 89),
  ('C/C(=N\Nc1nc(-c2ccc(C)cc2)cs1)c1ccccn1', 'Cruzipain (Trypanosoma cruzi)', 'inhibition', '%', 90);
